Test system: K4 kissing-loop RNA reporter;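 also: bound reporter read as fluorescence of individual clusters on recovered sequencing chips by microscopy, with normalized cluster intensities fitted with a binding model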
Assay: apparent KD of K4 kissing-loop reporter; higher = weaker reporter binding
Conditions: Eterna round: R107; input ligand: FMN 200 uM
Observation type: apparent KD of K4 kissing-loop reporter (nM)

{"Primary sequence": "CUGACUCAAUAGUCAGUGAUGUUGACUGGACGAGGACCGGUACGGCCGCCACUCGAGAGUGGUGUAAAAUAUGUCACAGAGUCAG [Tryp A SS t3b]", "Experimental target": "K4 kissing-loop RNA reporter", "Unit text": "nM", "Val": 186}
{"Primary sequence": "GGAGUAACCUGGGAUACCAGUCGGAGGCCUAGGGAUCGGAGUGAUGUUCUGGGAUGUUUCGGCCCUUGGCAGCUCUGGGUCUCCG [#2 Exclusion - Theophylline B Attempt #2 (HarryS)]", "Experimental target": "K4 kissing-loop RNA reporter", "Unit text": "nM", "Val": 184}
{"Primary sequence": "GGCGGCCGCGCGAAAGCGCGGCCGGCCGAUACCAGCGCGCCGGCGCGCCCUUGGCAGCGGCGCCGAGUGAUGUUCGGCCUGCCGU [#2 Same State - Theophylline A Attempt #12 (HarryS)]", "Experimental target": "K4 kissing-loop RNA reporter", "Unit text": "nM", "Val": 144}
{"Primary sequence": "GUCUCGAGUGAUGUUCGGGUCGAUUGGGAAGGAGCGCCCGGAAGGGCAGGUAGGUCGCCCGGGCCGCGCGGGAAACCGCGCGUCC [#2 Same State - Arginine A Attempt #8 (HarryS)]", "Experimental target": "K4 kissing-loop RNA reporter", "Unit text": "nM", "Val": 208}
{"Primary sequence": "AUUUAAUGUAUAGAUUAUAUACAUUAUUCAGAGGAUAUGCUUUGAAGCAGAAGGCUGGAUGUAGUGAUGUUGCAAUUUUAAUUUA [JR_SSFMNA_Sub006]", "Experimental target": "K4 kissing-loop RNA reporter", "Unit text": "nM", "Val": 214}
{"Primary sequence": "GGACGCCGGUCGGCCGCCACUCACAGCAGCCAGUGAUGUUGGAUUGUAGCGGAGUGAUGUUCCGAGAGGACCGGGACUGCAGUCU [Same State Tryptophan B GF 11]", "Experimental target": "K4 kissing-loop RNA reporter", "Unit text": "nM", "Val": 161}
{"Primary sequence": "GUGGUACAGGCGGCCGCCACUAGUGAUGUUAGUGAUAGAAGAUAUAGUAAAUAUCGGCAUUUAGAUAGGACCGGGCCUGGUGGUG [xxfxcmullin]", "Experimental target": "K4 kissing-loop RNA reporter", "Unit text": "nM", "Val": 353}
{"Primary sequence": "AACAUUUUCAGAAGGAGCGUGAAUUAUUCAUAAUUAUAUUAUACGAGUGAUGUUCGUAUUUCACAGGUAGGUCGCUGAUAUAGUA [#02 K4 Arginine B Same State]", "Experimental target": "K4 kissing-loop RNA reporter", "Unit text": "nM", "Val": 94.5}
{"Primary sequence": "GAUAUAUAUAGAGGAUAUAGCAGGUGAUACAAGAAAGUGAGUGAUGUUUAUGUAGAUGAUGAUAUGUUAGAAGGCUAUAUAUAUC [radioactive7-modED1598]", "Experimental target": "K4 kissing-loop RNA reporter", "Unit text": "nM", "Val": 844}
{"Primary sequence": "UGGAGUUGACGAAAAGUCAACUCCUGGGAAGGAGCGGACGAAAGUCCAGGUAGGUCGCCCACUACCAGUGAUGUUGGUACCUAAA", "Experimental target": "K4 kissing-loop RNA reporter", "Unit text": "nM", "Val": 274}
{"Primary sequence": "UCCUGCAAUCCACCACGAAAGUGGAUGGAUACCAGAGUCGAAAGACUCCCUUGGCAGCCAGUGAUGUUGGAGCAGGUAAAAUAAA", "Experimental target": "K4 kissing-loop RNA reporter", "Unit text": "nM", "Val": 526}
